- ASSAY_TARGET: T1, CD154 (human, UniProt P29965 113-261, limits assumed)
- T1 construct: also called CD40 ligand; CD40L
- T1 sequence (looked up): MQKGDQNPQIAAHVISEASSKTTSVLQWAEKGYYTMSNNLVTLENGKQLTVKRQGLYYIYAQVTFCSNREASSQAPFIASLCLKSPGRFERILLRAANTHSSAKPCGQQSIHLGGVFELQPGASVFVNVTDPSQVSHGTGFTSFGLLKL
- METHOD_NOTES: ELISA-based competitive binding assay; unlabeled Fab against biotin-labeled 5c8 Fab competitor
MEASURE: ELISA fold-improvement over wildtype

BINDER	MEASURE	EXPERIMENTAL_RESULT
5c8 Fab Mutant #5 (light chain T33W) (Fab, V domains shown, Fab fragment) VH: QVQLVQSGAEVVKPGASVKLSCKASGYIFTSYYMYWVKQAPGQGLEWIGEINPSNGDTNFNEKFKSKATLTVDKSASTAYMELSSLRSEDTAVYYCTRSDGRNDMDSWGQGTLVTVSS VL: DIVLTQSPATLSVSPGERATISCRASQRVSSSWYSYMHWYQQKPGQPPKLLIKYASNLESGVPARFSGSGSGTDFTLTISSVEPEDFATYYCQHSWEIPPTFGGGTKLEIK	ELISA fold-improvement over wildtype	5 fold over wildtype
5c8 Fab Mutant #18 (heavy chain T30H; light chain S26D/Q27E/T33W) (Fab, V domains shown, Fab fragment) VH: QVQLVQSGAEVVKPGASVKLSCKASGYIFHSYYMYWVKQAPGQGLEWIGEINPSNGDTNFNEKFKSKATLTVDKSASTAYMELSSLRSEDTAVYYCTRSDGRNDMDSWGQGTLVTVSS VL: DIVLTQSPATLSVSPGERATISCRADERVSSSWYSYMHWYQQKPGQPPKLLIKYASNLESGVPARFSGSGSGTDFTLTISSVEPEDFATYYCQHSWEIPPTFGGGTKLEIK	ELISA fold-improvement over wildtype	5.4 fold over wildtype
5c8 Fab Mutant #16 (heavy chain T30H; light chain S26D/Q27E) (Fab, V domains shown, Fab fragment) VH: QVQLVQSGAEVVKPGASVKLSCKASGYIFHSYYMYWVKQAPGQGLEWIGEINPSNGDTNFNEKFKSKATLTVDKSASTAYMELSSLRSEDTAVYYCTRSDGRNDMDSWGQGTLVTVSS VL: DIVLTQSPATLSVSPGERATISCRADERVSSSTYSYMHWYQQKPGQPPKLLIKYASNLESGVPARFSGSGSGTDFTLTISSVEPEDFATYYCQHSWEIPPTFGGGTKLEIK	ELISA fold-improvement over wildtype	5.8 fold over wildtype
